Taken from the METLIN SMRT retention time set (Domingo-Almenara et al. 2019).

- assayProtocol: gradient 5% acetonitrile 3 min, to 50% in 2 min, to 85% in 15 min, held 3 min, 100 µL/min
- assayConditions: column: Zorbax Extend-C18 2.1 x 50 mm; eluents: water / acetonitrile, 0.1% formic acid
Threshold 700 s. RP-LC retention time below it: MET. RP-LC retention time at it or above: NOT MET.

* COC[C@@H]1CN(C(=O)Cn2nc(C(F)(F)F)cc2C)C[C@H]1C(N)=O | MET
* CC(NC(=O)Cn1cc(C(=O)c2ccco2)c2ccccc21)c1ccc2c(c1)OCCCO2 (stereo not given) | NOT MET
* CCOC(=O)C1CCN(CC(O)COc2cc(C)cc(C)c2C)CC1 (stereo not given) | MET
* Cc1cc(Br)ccc1NS(=O)(=O)c1cc(-c2nc(C)c(C)s2)cs1 | NOT MET

###

- assayProtocol: gradient 5% acetonitrile 3 min, to 50% in 2 min, to 85% in 15 min, held 3 min, 100 µL/min
- assayConditions: column: Zorbax Extend-C18 2.1 x 50 mm; eluents: water / acetonitrile, 0.1% formic acid
reportedMetric: RP-LC retention time (s)

• Cn1nc2ccc(S(=O)(=O)N3CCCCC3)cn2c1=O = 703
• Cn1nc(CN2CCCC2)c2c1CCN(S(=O)(=O)c1ccc(F)cc1F)C2 = 622
• Cc1noc(N)c1-c1ccc(Cl)cc1 = 807
• CCOC(=O)C1C(=O)C(C(=O)OCC)C(c2ccccc2)NC1c1ccccc1 (stereo not given) = 832
• COC(=O)c1ccc(-c2nc3cnccn3c2Nc2ccc(OC)c(OC)c2)cc1 = 769
• COc1ccccc1-c1nnc(-c2ccc(Cl)c(S(=O)(=O)N3CCCCCC3)c2)o1 = 1150
• CC(C)CCNC(=O)C1(C)Cn2nc(C(=O)NCc3ccc(N(C)C)cc3)cc2C(=O)N1C (stereo not given) = 619
• CC(C)c1nncn1C1CCN(S(=O)(=O)c2cccc(Cl)c2)CC1 = 767
• O=C(Nc1ccc2c(N3CCCCC3)ncnc2c1)c1ccc(Br)o1 = 685
• Cc1nc(C2CCOCC2)n(C2CCN(S(=O)(=O)c3ccc(F)cc3F)C2)n1 (stereo not given) = 712
• CC1Cc2ccccc2N1C(=O)c1ccc(=O)n(CCC(=O)N2CCCCCC2)n1 (stereo not given) = 814
• COC1CCC12CCN(C(=O)c1cccs1)CC2 (stereo not given) = 748
• CCc1ccc(-c2cc3c(=O)n(CC(=O)NCC4CCCN4CC)nc(C)n3n2)cc1 (stereo not given) = 713
• CC(=O)N(Cc1nn(C)c2c1CN(S(=O)(=O)c1ccc3c(c1)CCC3)CC2)c1ccccc1 = 868
• COc1ccc(CNC(=O)c2ccc3c(c2)NC(=O)C2CCCCN32)c(OC)c1 (stereo not given) = 795
• COc1cccc(-c2c(C(=O)O)nnn2-c2ccc3c(c2)OCCO3)c1 = 744
• COc1ccc(OC)c(NC(=O)Cn2nc(N3CCOCC3)c3ccccc3c2=O)c1 = 796
• CC(C)NC(=O)Cc1cccn1-c1cccc(Cl)c1 = 870
• Cc1cc2c(c(=O)n(-c3ccccc3)c(=O)n2CC(=O)Nc2cccc(Br)c2)n1C = 836
• CCc1noc(NC(C)=O)c1-c1ccc(OC)c(S(=O)(=O)N2CCC3(CC2)OCCO3)c1 = 714
